The values you see were collected from patent US7045626B2.

target: MMP-13 (Homo sapiens)

- input smiles: "O=CN(O)[C@H](CS(=O)(=O)Cc1cnc2ccccc2c1)[C@H]1CCCO1"
  IC50: "6 µM"

---

biological target: MMP-3 (Homo sapiens, UniProt P08254)
Sequence (P08254 100-477, species assumed): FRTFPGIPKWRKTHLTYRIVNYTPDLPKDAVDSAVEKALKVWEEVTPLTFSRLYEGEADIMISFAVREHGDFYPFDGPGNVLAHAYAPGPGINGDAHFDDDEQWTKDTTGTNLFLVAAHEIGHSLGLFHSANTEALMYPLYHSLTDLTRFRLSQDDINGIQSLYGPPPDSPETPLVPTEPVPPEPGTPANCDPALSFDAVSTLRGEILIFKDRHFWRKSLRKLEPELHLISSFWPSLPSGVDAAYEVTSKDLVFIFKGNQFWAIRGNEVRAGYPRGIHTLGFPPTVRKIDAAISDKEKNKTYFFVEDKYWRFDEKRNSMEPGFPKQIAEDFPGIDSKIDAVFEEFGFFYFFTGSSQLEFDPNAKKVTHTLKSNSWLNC
pIC50: −log10 of the molar value.

- compound: "O=CN(O)[C@H](CS(=O)(=O)Cc1cnc2ccccc2c1)[C@H]1CCCO1 [Example 1]"
  pIC50: "< 4.00"

---

Target: human recombinant collagenase (Homo sapiens, UniProt P03956)
Sequence (P03956 100-469): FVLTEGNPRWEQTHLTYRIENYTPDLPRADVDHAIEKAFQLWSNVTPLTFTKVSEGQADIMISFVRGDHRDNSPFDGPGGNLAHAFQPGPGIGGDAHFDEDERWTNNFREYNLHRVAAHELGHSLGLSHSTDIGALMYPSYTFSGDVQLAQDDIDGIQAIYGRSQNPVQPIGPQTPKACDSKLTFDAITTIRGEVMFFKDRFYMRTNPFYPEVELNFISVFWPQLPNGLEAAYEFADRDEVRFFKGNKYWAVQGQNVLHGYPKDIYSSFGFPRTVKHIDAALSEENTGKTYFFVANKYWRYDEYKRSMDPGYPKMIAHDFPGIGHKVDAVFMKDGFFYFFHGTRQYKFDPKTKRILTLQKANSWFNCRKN
Assay: Collagenase inhibition assay
Details: 37° C., 18 h, 3H type 1 bovine collagen; read-out: IC50, collagenase inhibition (procedure 2)
Source text: Procedure 2: The ability of test compounds to inhibit matrix metalloproteases was investigated using the following procedures. Collagenase Inhibition Assay: […]
pIC50: −log10 of the molar value.
value type: pIC50

- input smiles: "O=CN(O)[C@H](CS(=O)(=O)Cc1cnc2ccccc2c1)[C@H]1CCCO1"
  target system: "human recombinant collagenase (Homo sapiens, UniProt P03956)"
  value type: "pIC50"
  readout value: 4.00
